experimental-details: The drug is tested on Bacteroides caccae strain: ATCC43185 for biotransformation. The drug concentrations were measured before and after a 12-h incubation by liquid-chromatography-coupled mass spectrometry (LC–MS)
study-conditions: 2 µM
endpoint: Bacterial Biotransformation

CO[C@]12C[C@@H](COC(=O)c3cncc(Br)c3)CN(C)[C@@H]1Cc1cn(C)c3cccc2c13 [NICERGOLINE]: Compound NOT metabolized
COCCc1ccc(OCC(O)CNC(C)C)cc1.COCCc1ccc(OCC(O)CNC(C)C)cc1.O=C(O)C(O)C(O)C(=O)O (stereo unspecified) [METOPROLOL TARTRATE]: Compound NOT metabolized
CCCc1nn(C)c2c(=O)[nH]c(-c3cc(S(=O)(=O)N4CCN(C)CC4)ccc3OCC)nc12.O=C(O)CC(O)(CC(=O)O)C(=O)O [SILDENAFIL CITRATE]: Compound NOT metabolized
CN1CCN(C2=Nc3ccccc3Oc3ccc(Cl)cc32)CC1.O=C(O)CCC(=O)O [LOXAPINE SUCCINATE]: Compound NOT metabolized
C#C[C@]1(OC(C)=O)CC[C@H]2[C@@H]3CCC4=CC(=O)CC[C@@H]4[C@H]3CC[C@@]21C [NORETHINDRONE ACETATE]: Compound metabolized
CCN(CC)CCOC(=O)C1(C2CCCCC2)CCCCC1 [DICYCLOMINE]: Compound NOT metabolized
CC(C)NCC(O)COc1ccc(COCCOC(C)C)cc1.CC(C)NCC(O)COc1ccc(COCCOC(C)C)cc1.O=C(O)/C=C/C(=O)O (stereo unspecified) [BISOPROLOL FUMARATE]: Compound NOT metabolized
CCOC(=O)[C@H](CCc1ccccc1)N[C@H]1CCc2ccccc2N(CC(=O)O)C1=O [BENAZEPRIL]: Compound metabolized

Batch of 6 compounds: report Bacterial Biotransformation for each.
1. COc1ccc(C(CN(C)C)C2(O)CCCCC2)cc1 (stereo unspecified) [VENLAFAXINE]
2. O=c1[nH]c2ccccc2n1CCCN1CCC(n2c(=O)[nH]c3cc(Cl)ccc32)CC1 [DOMPERIDONE]
3. O=P(O)(O)O.c1ccc(CN(CC2=NCCN2)c2ccccc2)cc1 [ANTAZOLINE PHOSPHATE]
4. CCOC(=O)C1=C(C)NC(C)=C(C(=O)OC)C1c1cccc([N+](=O)[O-])c1 (stereo unspecified) [NITRENDIPINE]
5. CC(C)[C@H]1CC[C@H](C(=O)N[C@H](Cc2ccccc2)C(=O)O)CC1 [NATEGLINIDE]
6. CC(=O)Oc1ccc(C(c2ccc(OC(C)=O)cc2)c2ccccn2)cc1 [BISACODYL]

Completion:
1. Compound NOT metabolized
2. Compound NOT metabolized
3. Compound NOT metabolized
4. Compound metabolized
5. Compound NOT metabolized
6. Compound metabolized

Batch of 5 compounds: report Bacterial Biotransformation for each.
1. CN1C[C@H](C(=O)N[C@]2(C)O[C@@]3(O)[C@@H]4CCCN4C(=O)[C@H](Cc4ccccc4)N3C2=O)C=C2c3cccc4[nH]cc(c34)C[C@H]21.CN1C[C@H](C(=O)N[C@]2(C)O[C@@]3(O)[C@@H]4CCCN4C(=O)[C@H](Cc4ccccc4)N3C2=O)C=C2c3cccc4[nH]cc(c34)C[C@H]21.O=C(O)C(O)C(O)C(=O)O [ERGOTAMINE TARTRATE]
2. CC(CCc1ccccc1)NCC(O)c1ccc(O)c(C(N)=O)c1 (stereo unspecified) [LABETALOL]
3. CN1CCN(C2=Nc3cc(Cl)ccc3Nc3ccccc32)CC1 [CLOZAPINE]
4. COc1cc2nc(N3CCN(C(=O)c4ccco4)CC3)nc(N)c2cc1OC [PRAZOSIN]
5. CCOC(=O)[C@H](CCc1ccccc1)N[C@@H](C)C(=O)N1Cc2ccccc2C[C@H]1C(=O)O

Completion:
["Compound metabolized", "Compound NOT metabolized", "Compound NOT metabolized", "Compound NOT metabolized", "Compound metabolized"]
